Values compiled from ChEMBL document CHEMBL5126543.

# System: PANC-1
# RUN DESCRIPTION: Antitumor activity against human PANC-1 cells assessed as decrease in cell viability measured after 36 hrs by WST-1 assay
# Assay type: functional, cell-based
# ASSAY SETUP: PANC-1, 36 h
METRIC: pIC50
Answers are plain numbers, as −log10 of the molar value.

CCCCCCCCC#CC(c1ccc(C(=O)OC)cc1)N1CCCC1 (configuration not stated): 4.87

With those in mind, consider the next compound.
Looking up CCCCCCCCC#CC(c1ccccc1)N1CCCC1 (configuration not stated) , I found its pIC50 recorded as 4.67

====

# RUN DESCRIPTION: Cytotoxicity against HFF-1 cells measured after 72 hrs by WST-1 assay
# Assay type: toxicity, cell-based
# ASSAY SETUP: human
Rule for this label: Met means IC50 at 72 h is less than 10 µM; Not met means IC50 at 72 h is at least 10 µM.

Below are worked cases with known answers.
CCN(CC)CC#CCSc1nc(SCC#CCN(CC)CC)c2c(ncn2C)n1: Met
Cn1cnc2nc(SCC#CCN3CCCCC3)nc(SCC#CCN3CCCCC3)c21: Met
Cn1c(SCC#CCN2CCOCC2)nc2nc(Cl)nc(SCC#CCN3CCOCC3)c21: Not met
Cn1c(SCC#CCN2CCCCC2)nc2nc(Cl)nc(SCC#CCN3CCCCC3)c21: Met
CCN(CC)CC#CCSc1nc2c(c(=O)[nH]c(=O)n2C)n1C: Met

Inquiry: Find out if reported IC50 at 72 h for `Cn1cnc2nc(SCC#CCN3CCOCC3)nc(SCC#CCN3CCOCC3)c21` is less than 10 µM
Reply text: Met

Inquiry: Find out if reported IC50 at 72 h for `Cn1c(SCC#CCN2CCCC2)nc2c1c(=O)[nH]c(=O)n2C` is less than 10 µM
Reply text: Not met

====

# Tested on: SK-BR-3
# RUN DESCRIPTION: Cytotoxicity against human SK-BR-3 cells treated for 72 hrs by MTT assay
# Type: functional, cell-based
# ASSAY SETUP: SK-BR-3, 72 h
METRIC: IC50 (µM)
Numbers only, in µM.

Completed entries (count: 3):
Clc1ccc2c(Nc3ccc(CN4CCCCC4)c(-c4ccccc4)c3)ccnc2c1: 64.3
Clc1ccc(-c2cc(Nc3ccnc4cc(Cl)ccc34)ccc2CN2CCCCC2)cc1: 2.98
CC(C)(C)NCc1ccc(Nc2ccnc3cc(Cl)ccc23)cc1: 37.3

Quick one: give me IC50 for each item below, same order please.
1. Clc1ccc2c(Nc3ccc(CN4CCCC4)cc3)ccnc2c1
2. CCN(CC)Cc1ccc(Nc2ccnc3cc(Cl)ccc23)cc1

Reply text:
1. 12.7
2. 121

Looking up `CN1CCN(Cc2ccc(Nc3ccnc4cc(Cl)ccc34)cc2-c2ccc(Cl)cc2)CC1` , I found its IC50 recorded as 16.8

====

Exercise: state measured IC50 for each of the compounds provided.
# System: MDA-MB-231
# RUN DESCRIPTION: Antiproliferative activity against human MDA-MB-231 cells measured after 72 hrs by WST-1 assay
# Format: functional, cell-based
# ASSAY SETUP: MDA-MB-231, 72 h

Completed entries (count: 5):
Cn1c(SCC#CCN2CCCCC2)nc2c1c(=O)[nH]c(=O)n2C: 364 µM
Cn1cnc2nc(SCC#CCN3CCCCC3)nc(SCC#CCN3CCCCC3)c21: 7.35 µM
Cn1c(SCC#CCN2CCOCC2)nc2c1c(=O)[nH]c(=O)n2C: 6.54 µM
Cn1cnc2nc(SCC#CCN3CCOCC3)nc(SCC#CCN3CCOCC3)c21: 50.8 µM
Cn1c(SCC#CCN2CCOCC2)nc2nc(Cl)nc(SCC#CCN3CCOCC3)c21: 74 µM

Quick one: give me IC50 for each item below, same order please.
1. CCN(CC)CC#CCSc1nc(SCC#CCN(CC)CC)c2c(ncn2C)n1
2. Cn1c(SCC#CCN2CCCCC2)nc2nc(Cl)nc(SCC#CCN3CCCCC3)c21
3. CCN(CC)CC#CCSc1nc(Cl)nc2nc(SCC#CCN(CC)CC)n(C)c12
4. Cn1c(SCC#CCN2CCCC2)nc2c1c(=O)[nH]c(=O)n2C
5. Cn1cnc2nc(SCC#CCN3CCCC3)nc(SCC#CCN3CCCC3)c21
6. Cn1c(SCC#CCN2CCCC2)nc2nc(Cl)nc(SCC#CCN3CCCC3)c21
7. CCN(CC)CC#CCSc1nc2c(c(=O)[nH]c(=O)n2C)n1C

Reply text:
38.5 µM
38.1 µM
10 µM
472 µM
19.9 µM
3.83 µM
68.1 µM
